measurement target: Renin (Homo sapiens)
Sequence (P00797 whole entry): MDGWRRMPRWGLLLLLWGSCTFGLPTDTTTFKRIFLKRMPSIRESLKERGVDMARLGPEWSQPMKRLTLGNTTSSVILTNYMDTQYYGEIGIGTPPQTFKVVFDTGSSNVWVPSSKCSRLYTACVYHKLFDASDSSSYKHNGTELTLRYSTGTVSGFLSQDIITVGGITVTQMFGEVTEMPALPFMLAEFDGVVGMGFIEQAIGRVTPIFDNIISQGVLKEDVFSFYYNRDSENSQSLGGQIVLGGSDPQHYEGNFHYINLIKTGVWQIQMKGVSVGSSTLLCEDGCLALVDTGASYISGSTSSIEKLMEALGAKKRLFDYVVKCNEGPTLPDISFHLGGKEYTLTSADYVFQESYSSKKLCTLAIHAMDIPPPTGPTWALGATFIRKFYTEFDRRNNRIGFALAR
protocol: Inhibition of human rennin in buffer assessed as accumulation of angiotensin 1 using human tetradecapeptide by immunoassay
So I've got a bunch of compounds here, and I need their pIC50 values.
One number for each entry, as −log10 of the molar value.

// known answers, use as guide
>>> value_reported("COc1cccc(CN(C(=O)C2=C(c3ccc(CCCOc4c(F)ccc(F)c4Cl)cc3)C[C@H]3CCC[C@H]2N3)C2CC2)c1C")
9.04
>>> value_reported("O=C(C1=C(c2ccc(CCCOc3c(F)ccc(F)c3Cl)cc2)C[C@H]2CNC[C@H]1N2)N(Cc1cccc(Cl)c1Cl)C1CC1")
9.40
>>> value_reported("O=C(C1=C(c2ccc(CCCOc3c(F)ccc(F)c3Cl)cc2)C[C@H]2CCC[C@H]1N2)N(Cc1cccc(Cl)c1Cl)C1CC1")
8.96

Summary for this compound, COc1cccc(CN(C(=O)C2=C(c3ccc(CCCOc4c(F)ccc(F)c4Cl)cc3)C(F)(F)CNC2)C2CC2)c1C : pIC50 is 6.48
